- protocolText: RAM pathway blockade in budding yeast – dse1pr::URA3 reporter, 5-FOA selection, pilot screen (AID 869);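 also: 0% = DMSO wells with no growth and 100% = 10 µM 1-NA-PP1 with full growth; RAM network block rescues cells from 5-FOA so hits raise OD615 growth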
- particulars: S. cerevisiae dse1pr::URA3 5-FOA growth, OD615, 2 d; at 10 µM; stronger effect = higher value; strain carries analog-sensitive mutant Cbk1 kinase
valueType: inhibition (%)

compound: O=C(COc1ccc(Cl)cc1)Nc1nnc(-c2ccc3c(c2)CCCC3)o1
valueType: inhibition
unitOfMeasure: %
recordedResult: 3.45

compound: COCCNC(=O)CN(C)S(=O)(=O)c1ccc(Br)cc1
valueType: inhibition
unitOfMeasure: %
recordedResult: 0.87

compound: CCCCn1c(SCC(=O)OCC)nc2c1c(=O)[nH]c(=O)n2C
valueType: inhibition
unitOfMeasure: %
recordedResult: 1.31

compound: CCCCCn1c(=O)[nH]c2cc(C(=O)NCCN3CCOCC3)ccc2c1=O
valueType: inhibition
unitOfMeasure: %
recordedResult: 1.83

compound: CNc1nc(C)nc(-c2ccccc2O)n1
valueType: inhibition
unitOfMeasure: %
recordedResult: 0.84

compound: CCOC(=O)C(CC)(CCC(=O)O)c1csc(N)n1 (stereo not given)
valueType: inhibition
unitOfMeasure: %
recordedResult: 0.94

compound: COc1ccc(C2C(C(=O)N3CCN(c4ccccc4)CC3)c3ccccc3C(=O)N2C)cc1OC (stereo not given)
valueType: inhibition
unitOfMeasure: %
recordedResult: 1.28

compound: c1ccc2c(c1)nc(NC1CCCCC1)c1nncn12
valueType: inhibition
unitOfMeasure: %
recordedResult: 0.325

compound: Oc1ccccc1-c1nnc(COc2ccc(Cl)cc2Cl)o1
valueType: inhibition
unitOfMeasure: %
recordedResult: 1.82

compound: CCOC(=O)CSC(CC)C(=O)Nc1nnc(C(C)C)s1 (stereo not given)
valueType: inhibition
unitOfMeasure: %
recordedResult: 1

compound: Clc1ccc2nc3ccccn3c2c1
valueType: inhibition
unitOfMeasure: %
recordedResult: 1.56

compound: COc1ccccc1C(=O)NC(CCSC)C(=O)NCC(c1ccco1)N(C)C (stereo not given)
valueType: inhibition
unitOfMeasure: %
recordedResult: 1.89

compound: COc1ccc2oc(-c3ccccc3)c(C(N)=O)c2c1
valueType: inhibition
unitOfMeasure: %
recordedResult: 0.53

compound: O=C(NCC1CCCO1)c1ccc(CS(=O)(=O)c2ccc(Br)cc2)o1 (stereo not given)
valueType: inhibition
unitOfMeasure: %
recordedResult: 1.06

compound: CCCn1nc2ccccc2c1P(=N)(N1CCOCC1)N1CCOCC1
valueType: inhibition
unitOfMeasure: %
recordedResult: 2.04

compound: Cc1ccc(SCC(=O)NCCN2C(=O)CSC2=O)c(C)c1
valueType: inhibition
unitOfMeasure: %
recordedResult: 1.09

compound: Cc1ccc(S(=O)(=O)NCc2nc3ccccc3[nH]2)cc1
valueType: inhibition
unitOfMeasure: %
recordedResult: 2.42

compound: Cc1cc(C)cc(NC(=O)CSc2nnc(Cc3cccn3C)n2-c2ccc(F)cc2)c1
valueType: inhibition
unitOfMeasure: %
recordedResult: 3.69

compound: O=C(c1ccc(Cl)s1)N1CCN(c2nc3ccccc3s2)CC1
valueType: inhibition
unitOfMeasure: %
recordedResult: 2.66

compound: CC1CCCCC1NC(=O)CCS(=O)(=O)c1cccc2nonc12 (stereo not given)
valueType: inhibition
unitOfMeasure: %
recordedResult: -0.06

compound: CSc1ccccc1NC(=O)c1cnc2n(c1=O)CCS2
valueType: inhibition
unitOfMeasure: %
recordedResult: 2.75

compound: CC(=O)c1ccc(OCC(O)CN2CCN(CCO)CC2)cc1 (stereo not given)
valueType: inhibition
unitOfMeasure: %
recordedResult: 1.13

compound: Nc1[nH]nc2nc(N3CCCC3)nc(-c3ccccc3)c12
valueType: inhibition
unitOfMeasure: %
recordedResult: 0.285

compound: O=C1CCCC2=C1C(c1cccs1)n1nc(SCc3ccccc3F)nc1N2 (stereo not given)
valueType: inhibition
unitOfMeasure: %
recordedResult: 1.23

compound: COc1ccc(S(=O)(=O)NCC(c2cccnc2)N2CCN(C)CC2)cc1C (stereo not given)
valueType: inhibition
unitOfMeasure: %
recordedResult: 2.23

* * *

- protocolText: yeast transport mutant growth inhibition pilot in 384-well plates, post-Golgi transport modulator project (AID 636)
- particulars: absorbance 615 nm, about 18 h, stronger effect = higher value
# reported inhibition; entries follow

compound: O=C(CN1CCN(Cc2ccccc2)CC1)NCC1COc2ccccc2O1 (stereo not drawn)
unitOfMeasure: %
inhibition: -2.53
//
compound: Cc1cc(NC(=O)CSc2nc3c(c(-c4cccnc4)c2C#N)CCC3)no1
unitOfMeasure: %
inhibition: -5.6
//
compound: COc1ccc(OC)c(NC(=O)CSc2nnc(Cc3cccn3C)n2-c2ccc(F)cc2)c1
unitOfMeasure: %
inhibition: 3.59
//
compound: COc1ccccc1-n1c(=O)[nH]c2c(C(N)=O)nc(-c3cccnc3)nc21
unitOfMeasure: %
inhibition: -3.2
//
compound: O=C(Cn1c(=O)[nH]c2ccsc2c1=O)NC1CCCCCC1
unitOfMeasure: %
inhibition: -7.16
//
compound: CNC(=O)CN(c1ccc(C(C)C)cc1)S(C)(=O)=O
unitOfMeasure: %
inhibition: -3.25
//
compound: COc1cccc(C(=O)OCn2nnc3ccccc3c2=O)c1OC
unitOfMeasure: %
inhibition: -2.67
//
compound: O=C(CCNS(=O)(=O)c1cccs1)Nc1ccccc1F
unitOfMeasure: %
inhibition: -6.49
//
compound: N#CCCN1CCN(S(=O)(=O)c2ccc(S(=O)(=O)NC3CCCC3)cc2)CC1
unitOfMeasure: %
inhibition: -3.46
//
compound: CCCCOC(=O)Cn1c(=O)oc2ccc(C)cc21
unitOfMeasure: %
inhibition: -3.2
//
compound: CCOC(=O)c1ccc(NS(=O)(=O)c2ccc3c(c2)oc(=O)n3C)cc1
unitOfMeasure: %
inhibition: -0.77
//
compound: CCn1cc(C(=O)NCc2ccccc2OC)c(=O)c2cc(S(=O)(=O)N(C)C)ccc21
unitOfMeasure: %
inhibition: -5.6
//
compound: CC(C)Cc1nnc(NS(=O)(=O)c2ccc(Cl)cc2)s1
unitOfMeasure: %
inhibition: -4.53
//
compound: Cc1onc(-c2c(Cl)cccc2Cl)c1C(=O)NCC1CCCO1 (stereo not drawn)
unitOfMeasure: %
inhibition: -4.59
//
compound: O=C(NCCC1=CCCCC1)C1CCN(S(=O)(=O)c2cccc3cccnc23)CC1
unitOfMeasure: %
inhibition: -2.27
//
compound: COc1ccc(-c2[nH]c(-c3cccc(OC)c3)nc2SCC(=O)NCc2ccco2)cc1
unitOfMeasure: %
inhibition: -2.67
//
compound: COCCn1c(=O)[nH]c2cc(C(=O)N3CCN(c4ccccc4OC)CC3)ccc2c1=O
unitOfMeasure: %
inhibition: -4.87
//
compound: Cc1ccc(C)n1-n1c(C)nc2sc(-c3ccccc3)cc2c1=O
unitOfMeasure: %
inhibition: -0.38
//
compound: CCCCCOc1ccc(C2NC(=O)NC2=O)cc1 (stereo not drawn)
unitOfMeasure: %
inhibition: -4.93
//
compound: COc1cccc(CNC(=O)Cn2c(=O)oc3ccccc32)c1OC
unitOfMeasure: %
inhibition: -6.27
//
compound: CC(O)CN1C(=O)C(CC(=O)Nc2ccc(Cl)cc2)SC1=Nc1ccccc1 (stereo not drawn)
unitOfMeasure: %
inhibition: -6.99
//
compound: O=C(NCc1ccc2c(c1)OCO2)C1CCCN(S(=O)(=O)c2cccc3cccnc23)C1 (stereo not drawn)
unitOfMeasure: %
inhibition: -4.93
//
compound: Cc1c(NC(=O)c2ccc(CN3CCc4ccccc4C3)cc2)c(=O)n(-c2ccccc2)n1C
unitOfMeasure: %
inhibition: -5.64

* * *

- protocolText: MRP1 drug-resistance reversers in H69AR cells – cell-based, doxorubicin co-treatment, pilot screen (AID 601)
- particulars: H69AR cells + 2 uM doxorubicin, CellTiter-Glo, 72 h; measured here: viability with 2 uM doxorubicin; at 10 µM; stronger effect = lower value
Flag rule - viability less than 90% flags 1; the remaining entries get -1.

compound: COc1cccc(-c2nc(CS(=O)(=O)CC(=O)N3CCN(c4ccccn4)CC3)c(C)o2)c1
qualitativeLabel: 1

compound: CCOCCCNC(=O)Cn1cc2c(n1)CCCCC2
qualitativeLabel: -1

compound: O=C(Nc1ccc2c(c1)OCCO2)C1CCN(C(=O)c2ccc(F)cc2)CC1
qualitativeLabel: 1

compound: CCOC(=O)/C=C1\CC(=O)Nc2nonc2N1
qualitativeLabel: -1

compound: Cc1ccc(Cn2c(CN3CCOCC3)nc3c2c(=O)n(C)c(=O)n3C)cc1
qualitativeLabel: -1

compound: C=CCn1c(=O)n(CCOC)c(=O)c2sc3ccccc3c21
qualitativeLabel: -1

compound: COc1ccc(-n2ncc3c(N4CCC(C)CC4)ncnc32)cc1
qualitativeLabel: 1

compound: Cc1nc2ccccn2c1/C(O)=C1\C(=O)C(=O)N(CCCN(C)C)C1c1ccc(F)cc1 (configuration not stated)
qualitativeLabel: -1

compound: Cc1ccc(-n2nc(C)c3cc(C(=O)O)sc32)cc1
qualitativeLabel: 1

compound: COc1ccccc1CC(=O)Nc1ccc(OC)c(OC)c1
qualitativeLabel: 1

compound: CCn1cc(C(=O)NCC2CCCO2)c(=O)c2cc(S(=O)(=O)N(C)C3CCCCC3)ccc21 (configuration not stated)
qualitativeLabel: 1

compound: COc1cccc(CNC(=O)CCS(=O)(=O)c2cccc3nsnc23)c1
qualitativeLabel: -1
